Measured Target: NgCA (Neisseria gonorrhoeae)
Construct: gene cah; recombinant enzyme obtained in-house
Sequence (Q50940 27-252): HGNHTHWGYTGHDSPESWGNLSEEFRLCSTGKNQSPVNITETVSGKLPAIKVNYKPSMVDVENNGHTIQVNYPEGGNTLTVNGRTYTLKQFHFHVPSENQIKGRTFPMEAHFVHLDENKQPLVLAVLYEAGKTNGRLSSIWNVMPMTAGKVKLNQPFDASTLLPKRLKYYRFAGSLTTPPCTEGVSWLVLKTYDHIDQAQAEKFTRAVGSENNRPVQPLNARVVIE
Assay Notes: stopped-flow CO2 hydration assay
Assay type: biochemical
Experimental Parameters: read-out: Ki (nM)^a / NgCA
Reported Metric: Ki (nM)
Response body: numeric value in nM, unit text excluded.

CCCN(CCC)C(=S)S [compound 26, 26]: 522
OCCCCNC(=S)S [compound 4, 4]: 438
S=C(S)N1CCOCC1 [compound 23, 23]: 483
O=C(O)C1COCCN1C(=S)S (centres unmarked) [compound 18, 18]: 672
CC1COCCN1C(=S)S (centres unmarked) [compound 19, 19]: 723
OCCCCCNC(=S)S [compound 21, 21]: 454
O=C(CN1CCN(C(=S)S)CC1)NC1CCCCC1 [compound 20, 20]: 84.4
S=C(S)NCCc1ccccc1 [compound 2, 2]: 259

Lab note: compound O=C(O)C1CCCCN1C(=S)S (centres unmarked) [compound 7, 7] tested on NgCA (Neisseria gonorrhoeae); recorded Ki was 827

Lab note: compound OC1CCCN(C(=S)S)C1 (centres unmarked) [compound 10, 10] tested on NgCA (Neisseria gonorrhoeae); recorded Ki was 367

Lab note: compound CCCCN(CC)C(=S)S [compound 27, 27] tested on NgCA (Neisseria gonorrhoeae); recorded Ki was 577

Origin of measurements: paper PMC8667944
